# Target Entity: T1, human IL-18 binding protein (IL-18BP) (human, UniProt O95998 31-194)
# T1 construct: also called hu IL-18BP; hIL18BP
# T1 sequence (looked up): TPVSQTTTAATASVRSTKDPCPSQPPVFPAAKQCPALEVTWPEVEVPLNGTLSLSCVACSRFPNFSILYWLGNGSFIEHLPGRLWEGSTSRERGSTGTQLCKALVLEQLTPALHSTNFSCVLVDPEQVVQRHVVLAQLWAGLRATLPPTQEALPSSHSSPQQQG
# Assay Name: Octet BLI
Measurement Kind: koff (s⁻¹)
API: value field is a number in s⁻¹; no unit string.

Sure, the documented koff for IL-18 variant G3H, N91V, K53S (ligand, also called G3H/K53S/N91V) YFHKLESKLSVIRNLNDQVLFIDQGNRPLFEDMTDSDMRDNAPRTIFIISMYSDSQPRGMAVTISVKSEKISTLSSENKIISFKEMNPPDVIKDTKSDIIFFQRSVPGHDNKMQFESSSYEGYFLASEKERDLFKLILKKEDELGDRSIMFTVQNED is 0.0031

Sure, the documented koff for IL-18 variant G3R, N91A, K53S (ligand, also called G3R/K53S/N91A) YFRKLESKLSVIRNLNDQVLFIDQGNRPLFEDMTDSDMRDNAPRTIFIISMYSDSQPRGMAVTISVKSEKISTLSSENKIISFKEMNPPDAIKDTKSDIIFFQRSVPGHDNKMQFESSSYEGYFLASEKERDLFKLILKKEDELGDRSIMFTVQNED is 0.000728

Hello, the source for this data is patent US20240182536A1, in case you need it.
